Data provenance: patent US11123398B2

Test system: panel of 10 lymphoma cell lines
Format: cell-based, human
Conditions: conclusion
Non-standard residues stand in square brackets, D forms with d. Residues, ends and D or L forms follow the SMILES beside them. Bip = N[C@@H](Cc1ccc(-c2ccccc2)cc1)C(=O)O; dBip = N[C@H](Cc1ccc(-c2ccccc2)cc1)C(=O)O; Dip = N[C@H](C(=O)O)C(c1ccccc1)c1ccccc1
reportedProperty: IC50 range against 10 human lymphoma cell lines

>  <compound>
NCCCC[C@H](NC(=O)[C@H](Cc1c[nH]c2ccccc12)NC(=O)[C@H](Cc1c[nH]c2ccccc12)NC(=O)[C@H](CCCCN)NC(=O)[C@H](CCCCN)NC(=O)[C@H](Cc1c[nH]c2ccccc12)NC(=O)[C@H](Cc1ccc(-c2ccccc2)cc1)NC(=O)[C@H](CCCCN)NC(=O)[C@@H](N)CCCCN)C(N)=O [LTX-313, K-K-Bip-W-K-K-W-W-K-NH2] (H-KK[Bip]WKKWWK-NH2; N-terminus assumed)

>  <reportedResult>
micromolar range

$$$$
>  <compound>
N=C(N)NCCC[C@H](NC(=O)[C@H](Cc1c[nH]c2ccccc12)NC(=O)[C@H](Cc1c[nH]c2ccccc12)NC(=O)[C@H](CCCNC(=N)N)NC(=O)[C@H](CCCNC(=N)N)NC(=O)[C@@H](NC(=O)[C@H](Cc1c[nH]c2ccccc12)NC(=O)[C@H](CCCNC(=N)N)NC(=O)[C@@H](N)CCCNC(=N)N)C(c1ccccc1)c1ccccc1)C(N)=O [LTX-320, R-R-W-Dip-R-R-W-W-R-NH2] (H-RRW[Dip]RRWWR-NH2; N-terminus assumed)

>  <reportedResult>
micromolar range

$$$$
>  <compound>
NCCCC[C@H](NC(=O)[C@@H](NC(=O)[C@H](Cc1c[nH]c2ccccc12)NC(=O)[C@H](CCCCN)NC(=O)[C@H](CCCCN)NC(=O)[C@H](Cc1c[nH]c2ccccc12)NC(=O)[C@H](Cc1c[nH]c2ccccc12)NC(=O)[C@H](CCCCN)NC(=O)[C@@H](N)CCCCN)C(c1ccccc1)c1ccccc1)C(N)=O [LTX-315, K-K-W-W-K-K-W-Dip-K-NH2] (H-KKWWKKW[Dip]K-NH2)

>  <reportedResult>
micromolar range

$$$$
>  <compound>
NCCCC[C@@H](N)C(=O)N[C@H](CCCCN)C(=O)N[C@H](Cc1ccc(-c2ccccc2)cc1)C(=O)N[C@H](Cc1c[nH]c2ccccc12)C(=O)N[C@H](CCCCN)C(=O)N[C@H](CCCCN)C(=O)N[C@H](Cc1c[nH]c2ccccc12)C(=O)N[C@H](Cc1c[nH]c2ccccc12)C(=O)N[C@H](CCCCN)C(N)=O [LTX-329, k-k-bip-w-k-k-w-w-k-NH2] (H-[dK][dK][dBip][dW][dK][dK][dW][dW][dK]-NH2; N-terminus assumed)

>  <reportedResult>
micromolar range

$$$$

====

System: HL-60/ADR
Experiment: MTS cytotoxicity assay, HL-60/ADR
Type: cell-based, human
Conditions: IC50 resistant / IC50 sensitive line; doxorubicin resistance
Non-standard residues stand in square brackets, D forms with d. Residues, ends and D or L forms follow the SMILES beside them. Bip = N[C@@H](Cc1ccc(-c2ccccc2)cc1)C(=O)O; dBip = N[C@H](Cc1ccc(-c2ccccc2)cc1)C(=O)O; Dip = N[C@H](C(=O)O)C(c1ccccc1)c1ccccc1
reportedProperty: Resistance index (RI), HL-60/ADR
Please respond with just the number, no unit label.

# input Recorded Resistance index (RI), HL-60/ADR for NCCCC[C@H](NC(=O)[C@H](Cc1c[nH]c2ccccc12)NC(=O)[C@H](CCCCN)NC(=O)[C@H](CCCCN)NC(=O)[C@@H](NC(=O)[C@H](Cc1c[nH]c2ccccc12)NC(=O)[C@H](CCCCN)NC(=O)[C@H](CCCCN)NC(=O)[C@@H](N)Cc1c[nH]c2ccccc12)C(c1ccccc1)c1ccccc1)C(N)=O [LTX-302, W-K-K-W-Dip-K-K-W-K-NH2] (H-WKKW[Dip]KKWK-NH2; N-terminus assumed) , please?
# output 1.31

# input # iterate: N=C(N)NCCC[C@H](NC(=O)[C@H](Cc1c[nH]c2ccccc12)NC(=O)[C@H](Cc1c[nH]c2ccccc12)NC(=O)[C@H](CCCNC(=N)N)NC(=O)[C@H](CCCNC(=N)N)NC(=O)[C@@H](NC(=O)[C@H](Cc1c[nH]c2ccccc12)NC(=O)[C@H](CCCNC(=N)N)NC(=O)[C@@H](N)CCCNC(=N)N)C(c1ccccc1)c1ccccc1)C(N)=O [LTX-320, R-R-W-Dip-R-R-W-W-R-NH2] (H-RRW[Dip]RRWWR-NH2; N-terminus assumed)
# output 0.90

# input # iterate: NCCCC[C@@H](N)C(=O)N[C@H](CCCCN)C(=O)N[C@H](Cc1ccc(-c2ccccc2)cc1)C(=O)N[C@H](Cc1c[nH]c2ccccc12)C(=O)N[C@H](CCCCN)C(=O)N[C@H](CCCCN)C(=O)N[C@H](Cc1c[nH]c2ccccc12)C(=O)N[C@H](Cc1c[nH]c2ccccc12)C(=O)N[C@H](CCCCN)C(N)=O [LTX-329, k-k-bip-w-k-k-w-w-k-NH2] (H-[dK][dK][dBip][dW][dK][dK][dW][dW][dK]-NH2; N-terminus assumed)
# output 0.80

# input # iterate: NCCCC[C@H](NC(=O)[C@H](Cc1c[nH]c2ccccc12)NC(=O)[C@H](Cc1c[nH]c2ccccc12)NC(=O)[C@H](CCCCN)NC(=O)[C@H](CCCCN)NC(=O)[C@H](Cc1c[nH]c2ccccc12)NC(=O)[C@H](Cc1ccc(-c2ccccc2)cc1)NC(=O)[C@H](CCCCN)NC(=O)[C@@H](N)CCCCN)C(N)=O [LTX-313, K-K-Bip-W-K-K-W-W-K-NH2] (H-KK[Bip]WKKWWK-NH2; N-terminus assumed)
# output 1.16

# input # iterate: NCCCC[C@H](NC(=O)[C@@H](NC(=O)[C@H](Cc1c[nH]c2ccccc12)NC(=O)[C@H](CCCCN)NC(=O)[C@H](CCCCN)NC(=O)[C@H](Cc1c[nH]c2ccccc12)NC(=O)[C@H](Cc1c[nH]c2ccccc12)NC(=O)[C@H](CCCCN)NC(=O)[C@@H](N)CCCCN)C(c1ccccc1)c1ccccc1)C(N)=O [LTX-315, K-K-W-W-K-K-W-Dip-K-NH2] (H-KKWWKKW[Dip]K-NH2)
# output 1.45
